measured.on: BTK (Homo sapiens)
Sequence (Q06187 whole entry): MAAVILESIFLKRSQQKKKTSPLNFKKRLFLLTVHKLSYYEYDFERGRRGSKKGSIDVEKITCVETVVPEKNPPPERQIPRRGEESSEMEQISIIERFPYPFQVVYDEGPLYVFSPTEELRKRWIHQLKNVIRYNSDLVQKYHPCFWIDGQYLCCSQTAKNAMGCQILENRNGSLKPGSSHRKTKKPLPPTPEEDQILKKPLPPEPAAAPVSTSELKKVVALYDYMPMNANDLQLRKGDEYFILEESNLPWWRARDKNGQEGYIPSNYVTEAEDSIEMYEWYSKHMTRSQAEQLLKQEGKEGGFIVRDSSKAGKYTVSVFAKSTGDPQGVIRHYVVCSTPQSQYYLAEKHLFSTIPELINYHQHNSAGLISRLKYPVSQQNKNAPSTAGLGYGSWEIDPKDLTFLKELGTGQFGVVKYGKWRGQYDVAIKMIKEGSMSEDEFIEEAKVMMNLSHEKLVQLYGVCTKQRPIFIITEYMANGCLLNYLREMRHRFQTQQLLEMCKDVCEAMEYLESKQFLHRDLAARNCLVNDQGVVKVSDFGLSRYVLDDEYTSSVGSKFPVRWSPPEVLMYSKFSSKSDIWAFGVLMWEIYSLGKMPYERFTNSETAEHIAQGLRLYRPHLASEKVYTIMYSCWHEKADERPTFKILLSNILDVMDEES
procedure.details: Degradation of BTK protein in Namalwa cells (Western blot; DC50, Dmax)
measurement.setup: read-out: DC50 (BTK degradation); concentration giving 50% reduction of BTK expression level; cell line not given
property.measured: DC50

The cases that follow already have their DC50 on record.
Which DC50 value is on record for Nc1ncnc2c1c(-c1ccc(Oc3ccccc3)cc1)nn2[C@@H]1CCCN(C2CN(C(=O)N3CCC(N4CCN(c5ccc6c(c5)C(=O)N(C5CCC(=O)NC5=O)C6=O)CC4)CC3)C2)C1 (some centres unmarked) ?
< 10 nM

Which DC50 value is on record for NC(=O)c1c(-c2ccc(Oc3ccccc3)cc2)nn2c1NCC[C@H]2C1CCN(CC2CCN(C(=O)N3CCN(CC4CCN(c5ccc6c(c5)CN(C5CCC(=O)NC5=O)C6=O)CC4)CC3)CC2)CC1 (some centres unmarked) ?
10 to 50 nM

Which DC50 value is on record for Nc1ncnc2c1c(-c1ccc(Oc3ccccc3)cc1)nn2C1CCN(C[C@H]2CCN(CC3CN(c4ccc5c(c4)C(=O)N(C4CCC(=O)NC4=O)C5=O)C3)C2)CC1 (some centres unmarked) [Compound 423a] ?
10 to 50 nM

Which DC50 value is on record for Nc1ncnc2c1c(-c1ccc(Oc3ccccc3)cc1)nn2C1CCN(CCN2CCC(N3CCN(c4ccc5c(c4)C(=O)N(C4CCC(=O)NC4=O)C5=O)CC3)CC2)CC1 (centres unmarked) ?
< 10 nM

Which DC50 value is on record for Nc1ncnc2c1c(-c1ccc(Oc3ccccc3)cc1)cn2C1CCN(CCN2CC(N3CCN(c4ccc5c(c4)CN(C4CCC(=O)NC4=O)C5=O)CC3)C2)CC1 (centres unmarked) ?
10 to 50 nM

Which DC50 value is on record for Nc1ncnc2c1c(-c1ccc(Oc3ccccc3)cc1)nn2C1CCN(CC2CCN(CC3CCN(CC4CN(c5ccc6c(c5)C(=O)N(C5CCC(=O)NC5=O)C6=O)C4)CC3)CC2)CC1 (centres unmarked) ?
> 50 nM

Which DC50 value is on record for NC(=O)c1c(-c2ccc(Oc3ccccc3)cc2)nn2c1NCC[C@H]2C1CCN(C2CCN(C(=O)N3CCC(CC4CCN(c5ccc6c(c5)C(=O)N(C5CCC(=O)NC5=O)C6=O)CC4)CC3)CC2)CC1 (some centres unmarked) ?
10 to 50 nM

Which DC50 value is on record for Nc1ncnc2c1c(-c1ccc(Oc3ccccc3)cc1)nn2[C@@H]1CCCN(C2CN(C(=O)N3CCC(N4CCN(c5ccc6c(c5)CN(C5CCC(=O)NC5=O)C6=O)CC4)CC3)C2)C1 (some centres unmarked) ?
< 10 nM

***
Which DC50 value is on record for Nc1ncnc2c1c(-c1ccc(Oc3ccccc3)cc1)nn2C1CCN(CCOCCOCCN2CC=C(c3ccc4c(c3)CN(C3CCC(=O)NC3=O)C4=O)CC2)CC1 (centres unmarked) ?
10 to 50 nM

Which DC50 value is on record for Nc1ncnc2c1c(-c1ccc(Oc3ccccc3)cc1)nn2C1CCN(C[C@H]2CCN(CC3CN(CC4CN(c5ccc6c(c5)C(=O)N(C5CCC(=O)NC5=O)C6=O)C4)C3)C2)CC1 (some centres unmarked) [Compound 427a] ?
> 50 nM

Which DC50 value is on record for Nc1ncnc2c1c(-c1ccc(Oc3ccccc3)cc1)nn2C1CCN(C2CCN(CC3CN(CC4CN(c5ccc6c(c5)CN(C5CCC(=O)NC5=O)C6=O)C4)C3)CC2)CC1 (centres unmarked) ?
10 to 50 nM

Which DC50 value is on record for Nc1ncnc2c1c(-c1ccc(Oc3ccccc3)cc1)nn2C1CCN(C2CCN(CCCCC#Cc3ccc(N4CCC(=O)NC4=O)cc3)CC2)CC1 ?
> 50 nM

Which DC50 value is on record for Nc1ncnc2c1c(-c1ccc(Oc3ccccc3)cc1)nn2C1CCN(CC2CCN(CC3CCN(c4ccc(N5CCC(=O)NC5=O)cc4)CC3)C2)CC1 (centres unmarked) ?
< 10 nM

Which DC50 value is on record for Nc1ncnc2c1c(-c1ccc(Oc3ccccc3)cc1)nn2C1CCN(C(=O)N2CC(N3CCN(c4ccc5c(c4)CN([C@@H]4CCC(=O)NC4=O)C5=O)CC3)C2)CC1 ?
< 10 nM
